Measured activation at 0.005 µM accompanies every entry in the list below.
Tested on: HaCat cells (cultured keratinocytes)
testMethodNotes: Proliferative influence on cultured keratinocytes (cell counting with Coulter Counter)
Assay type: cell-based
conditionNotes: Homo sapiens, 120 h, 5 nM, 5 days, read-out: increase in the number of cells with respect to the control
parameter: activation at 0.005 µM (%)

| compound | parameter | quantitativeReadout |
| --- | --- | --- |
| CCCCCCCCCCCCCCCCCCCCCCCC(=O)NC(CO)C(O)CCCCCCCCCCCCCCC (stereo not drawn) | activation at 0.005 µM | 27 |
| CCCCCCCCCCCCCCCC(O)C(CO)NC(=O)CCCCCCC (stereo not drawn) | activation at 0.005 µM | 18 |
| CCCCCCCCCCCCCCCC(O)C(CO)NC(C)=O (stereo not drawn) | activation at 0.005 µM | 34 |
| CCCCCCCCCCCCCCCC(O)C(N)CO (stereo not drawn) | activation at 0.005 µM | 15 |
| CCCCCCCC/C=C\CCCCCCCC(=O)NC(CO)C(O)CCCCCCCCCCCCCCC (stereo not drawn) | activation at 0.005 µM | 24 |
| CCCCCCCCCCCCCCCC(O)C(CO)NC(=O)C(O)CCCCCCCCCCCCCC (stereo not drawn) | activation at 0.005 µM | 36 |
